B1: TLE6 (parent)
chain: FWHDTLTEQLWRIFAGVHDEKAKP

variants of: B1; assay: protein stability index of a GFP-peptide fusion (GPS, HEK-293T) (PSI 1-6); higher = more stable; settings: c terminus: a fixed tail appended;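 note: lentivirally expressed fusions sorted by FACS into six bins by GFP to DsRed ratio, PSI derived from sequencing read proportions per bin multiplied by bin number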
Quick rule for you: protein stability index at 2 or higher means MET, lower means NOT MET.

Worked examples, 3 variants total:
[[record]]
entry_sequence = "FWHDTLTEQLWRHFAGVHDEKAKP [I13H]"
class_label = "NOT MET"

[[record]]
entry_sequence = "FWHDTLTEILWRIFAGVHDEKAKP [Q9I]"
class_label = "MET"

[[record]]
entry_sequence = "FWHKTLTEQLWRIFAGVHDEKAKP [D4K]"
class_label = "NOT MET"


Request: Decide: protein stability index of FWHDTLTEQLFRIFAGVHDEKAKP [W11F] >= 2?
Response: NOT MET

Request: Decide: protein stability index of FQHDTLTEQLWRIFAGVHDEKAKP [W2Q] >= 2?
Response: MET
